B1: Azoarcus group I ribozyme (parent)
chain: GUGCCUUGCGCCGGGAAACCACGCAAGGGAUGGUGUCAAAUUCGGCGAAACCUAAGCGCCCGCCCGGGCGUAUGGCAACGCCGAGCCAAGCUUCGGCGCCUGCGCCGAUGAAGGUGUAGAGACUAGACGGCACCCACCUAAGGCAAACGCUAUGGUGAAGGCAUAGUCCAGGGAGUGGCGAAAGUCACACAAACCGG

Variants of: B1
Test Name: reverse-splicing fitness (ratio to wild type); higher = more active; in vitro selection; Mg2+ level not given
Param threshold (0.01) applies to reverse-splicing fitness; output rule met when value >= threshold, rule not met when value < threshold.

>>> df
                            sequence_variant  answer_label
 0  C82U A111C A120C A145G C150G C169A U176G  rule not met
 1                   A111U A145G C150U U176G      rule met
 2              C82A A111G A120U C150U U176A  rule not met
 3  C82G A111C A120C A145G C150A C169U U176C      rule met
 4        C82G A111U A120U A145C C150U U176A  rule not met
 5        C82G A111U A145C C150U C169G U176A      rule met
 6  C82U A111U A120G A145U C150A C169U U176A      rule met
 7        C82A A111U A120C C150A C169U U176G  rule not met
 8        C82G A111C A120G C150G C169A U176G  rule not met
 9                               A111C U176C      rule met
10       A111C A120G A145G C150U C169G U176C      rule met
11        C82A A111C A120C A145C C150A C169G  rule not met
12        C82G A111G A120U A145C C150A U176G  rule not met
13              C82G A120C A145U C150U U176A      rule met
14       A111G A120C A145U C150A C169G U176G  rule not met
15        C82A A111C A120G A145U C169U U176G  rule not met
16             A111C A145C C150A C169A U176G  rule not met
17             A111U A120U A145C C169A U176C  rule not met
18  C82G A111U A120C A145C C150U C169U U176C      rule met
